interaction score listing for selected binders.
- MEASURED_TARGET: T1, 4H3427-AA
- T1 chain: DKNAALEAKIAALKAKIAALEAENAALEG
- METHOD_SUMMARY: two-hybrid library CCmax;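 also: natural log of median RNA to DNA barcode read ratio; higher means stronger binding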
- SETTINGS: mean of both orientations
Output spec: single numeric token, no unit.

I am curious: what interaction score value has been reported for DENAALEAKNAALEAKIAALEAKIAALKG [4H1446-AA] ?
-0.719

Another: DKNAALEAKIAALEAENAALKAEIAALKG [4H3354-AA]
-1.79

Others:
I am curious: what interaction score value has been reported for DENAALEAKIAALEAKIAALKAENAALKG [4H1324-AA] ?
0.0395

Another: DKIAALKAKNAALEAEIAALEAKIAALEG [4H2949-AA]
-0.95

Another: DEIAALEAKIAALKAEIAALKAKNAALEG [4H335-AA]
-0.982

Another: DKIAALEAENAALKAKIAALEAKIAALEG [4H2277-AA]
-1.51
